molecular target: HePTP (Homo sapiens, UniProt P35236)
Sequence (P35236 97-350 limits assumed): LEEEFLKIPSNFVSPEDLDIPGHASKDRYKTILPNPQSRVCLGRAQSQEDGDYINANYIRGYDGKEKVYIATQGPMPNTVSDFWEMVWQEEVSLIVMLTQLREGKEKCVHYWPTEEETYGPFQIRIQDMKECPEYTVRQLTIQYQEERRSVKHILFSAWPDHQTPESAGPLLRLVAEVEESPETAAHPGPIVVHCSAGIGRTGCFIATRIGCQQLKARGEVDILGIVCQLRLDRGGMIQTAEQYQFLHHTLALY
pIC50: −log10 of the molar value.

# Compound, pIC50
rows = [
    ("CC[C@@H](C)C[C@@H](C)/C=C(C)/C=C/C=C/C=C(\\C)C(=O)c1c(O)c(-c2ccc(O)cc2)cn(O)c1=O [Fumos, Fumosorinone]", "< 4.00"),
]

---

molecular target: Cdc25b (Homo sapiens, UniProt P30305); experiment: in vitro PTP assay (pNPP), Cdc25b; format: biochemical; conditions: Cdc25b PTP domain
Sequence (P30305 431-538 limits assumed): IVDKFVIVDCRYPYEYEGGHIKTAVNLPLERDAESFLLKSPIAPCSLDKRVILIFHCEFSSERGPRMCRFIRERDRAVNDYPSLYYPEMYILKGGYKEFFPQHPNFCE
pIC50: −log10 of the molar value.

# Molecule, pIC50
data = [
    ("CC[C@@H](C)C[C@@H](C)/C=C(C)/C=C/C=C/C=C(\\C)C(=O)c1c(O)c(-c2ccc(O)cc2)cn(O)c1=O [Fumos, Fumosorinone]", "< 4.00"),
]
